Assay: Dynamic Vapor Sorption (DVS), hygroscopicity of polymorphic forms
Format: physicochemical
Conditions: DVS, 25° C.; monobenzenesulfonate

compound: CC1(COc2ccc3c(c2)ncn3-c2ccc3cccc(N4CCC(N)CC4)c3n2)COC1.O=S(=O)(O)c1ccccc1 [Form III]
hygroscopicity: slightly hygroscopic

compound: CC1(COc2ccc3c(c2)ncn3-c2ccc3cccc(N4CCC(N)CC4)c3n2)COC1.O=S(=O)(O)c1ccccc1 [Form II]
hygroscopicity: slightly hygroscopic

###

Assay: Dynamic Vapor Sorption (DVS), hygroscopicity of polymorphic forms
Format: physicochemical
Conditions: DVS cycling, XRPD of retained solid; monobenzenesulfonate
readout-label: form change during DVS cycling / post-DVS (XRPD)

compound: CC1(COc2ccc3c(c2)ncn3-c2ccc3cccc(N4CCC(N)CC4)c3n2)COC1.O=S(=O)(O)c1ccccc1 [Form II]
observed-measurement: No form change
--
compound: CC1(COc2ccc3c(c2)ncn3-c2ccc3cccc(N4CCC(N)CC4)c3n2)COC1.O=S(=O)(O)c1ccccc1 [Form III]
observed-measurement: No form change
--
compound: CC1(COc2ccc3c(c2)ncn3-c2ccc3cccc(N4CCC(N)CC4)c3n2)COC1.O=S(=O)(O)c1ccccc1 [Form I]
observed-measurement: No form change
